target: T1, Histidine-tagged human CD3e protein (human, UniProt P07766 23-126); assay: SPR (Biacore), human CD3e
T1 construct: also called hCD3e-His; not shown: His tag
T1 sequence (P07766 23-126 limits assumed): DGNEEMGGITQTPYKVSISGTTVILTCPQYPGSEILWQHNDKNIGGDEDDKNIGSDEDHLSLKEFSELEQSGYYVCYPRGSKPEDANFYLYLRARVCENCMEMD
attributeMeasured: kon (M⁻¹ s⁻¹)
Quick reminder: number only, in M⁻¹ s⁻¹, skip the unit.

Known kon results, listed for orientation:
10A4-H1K1-IgG1-LALA (antibody, V domains shown, Humanized; human IgG1 with LALA mutations; also called H1K1 (humanized 10A4)) VH: QVQLVQSGAEVKKPGASVKVSCKASGYTFTSYYIHWVRQAPGQRLEFIGWIYPGNVNAKYNEKFKGRVTITTDKSASTAYMELSSLRSEDTAVYYCAIKGGNYDWGQGTLVTVSS VL: DVVMTQSPLSLPVTLGQPASISCQSSQSLLDSDGKTYLNWLQQRPGQSPRRLIYLVSKLGSGVPDRFSGSGSGTDFTLKISRVEAEDVGVYYCWQGTHFPRTFGGGTKVEIK | 56300
10A4-H2K2-IgG1-LALA (antibody, V domains shown, Humanized; human IgG1 with LALA mutations; also called H2K2 (humanized 10A4)) VH: QVQLVQSGAEVKKPGASVKISCKASGYTFTSYYIHWVRQAPGQRLEFIGWIYPGNVNAKYNEKFKGRATITTDKSASTAYMELSSLRSEDTAVYYCAIKGGNYDWGQGTLVTVSS VL: DVVMTQSPLSLPVTLGQPASISCQSSQSLLDSDGKTYLNWLQQRPGQSPRRLIYLVSKLGSGVPDRFSGSGSGTDFTLKISRVEAEDVGVYYCWQGTHFPRTFGGGTKLEIK | 68400

Exercise: For 10A4-H1K2-IgG1-LALA (antibody, V domains shown, Humanized; human IgG1 with LALA mutations; also called H1K2 (humanized 10A4)) VH: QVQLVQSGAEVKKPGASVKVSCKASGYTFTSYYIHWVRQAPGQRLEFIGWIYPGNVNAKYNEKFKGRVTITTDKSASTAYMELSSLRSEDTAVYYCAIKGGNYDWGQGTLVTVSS VL: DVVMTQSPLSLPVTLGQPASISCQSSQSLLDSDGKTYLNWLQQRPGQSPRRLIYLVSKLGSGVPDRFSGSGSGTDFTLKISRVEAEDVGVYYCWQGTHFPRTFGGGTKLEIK , what is its reported kon?
Key: 59300

Exercise: May I ask what kon has been recorded for 10A4-H4K1-IgG1-LALA (antibody, V domains shown, Humanized; human IgG1 with LALA mutations; also called H4K1 (humanized 10A4)) VH: QVQLQQSGAEVKKPGASVRISCKASGYTFTSYYIHWVRQRPGQGLEFIGWIYPGNVNAKYNEKFKGRATLTTDKSASTAYMELSSLRSEDTAVYFCAIKGGNYDWGQGTLVTVSS VL: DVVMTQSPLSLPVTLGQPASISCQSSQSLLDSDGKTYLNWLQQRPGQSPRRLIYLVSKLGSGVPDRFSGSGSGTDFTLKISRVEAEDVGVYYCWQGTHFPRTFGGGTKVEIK ?
Key: 68100

Exercise: Which kon is listed for 10A4-H2K1-IgG1-LALA (antibody, V domains shown, Humanized; human IgG1 with LALA mutations; also called H2K1 (humanized 10A4)) VH: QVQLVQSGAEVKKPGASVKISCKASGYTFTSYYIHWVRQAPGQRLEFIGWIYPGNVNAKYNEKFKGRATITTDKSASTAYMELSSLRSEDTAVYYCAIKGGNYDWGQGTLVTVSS VL: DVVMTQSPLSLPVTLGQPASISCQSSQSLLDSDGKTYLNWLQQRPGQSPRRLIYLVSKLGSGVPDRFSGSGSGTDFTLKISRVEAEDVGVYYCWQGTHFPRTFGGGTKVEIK ?
Key: 60500

Taken from patent US20210269525A1.
